compounds and their reported Luciferase induction (% of maximum luciferase induction produced by CT, 100 nM)
Target: Human calcitonin receptor (Homo sapiens)
Construct: expressed in transfected cells; host or cells: BHK-570 (Hollex-1)
Sequence (P30988 25-474): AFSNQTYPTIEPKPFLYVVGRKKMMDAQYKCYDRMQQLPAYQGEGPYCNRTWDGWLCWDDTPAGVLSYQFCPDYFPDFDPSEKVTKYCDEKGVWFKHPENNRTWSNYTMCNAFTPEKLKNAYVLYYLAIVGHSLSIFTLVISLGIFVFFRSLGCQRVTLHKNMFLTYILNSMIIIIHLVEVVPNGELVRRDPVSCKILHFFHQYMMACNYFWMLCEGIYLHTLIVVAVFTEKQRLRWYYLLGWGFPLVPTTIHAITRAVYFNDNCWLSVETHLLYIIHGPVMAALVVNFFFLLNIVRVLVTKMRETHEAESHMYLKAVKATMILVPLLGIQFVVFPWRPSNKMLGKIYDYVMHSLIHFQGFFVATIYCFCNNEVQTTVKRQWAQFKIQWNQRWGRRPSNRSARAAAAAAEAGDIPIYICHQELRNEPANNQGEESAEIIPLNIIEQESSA
Experiment: CRE-luciferase assay for calcitonin mimetics (Hollex-1)
Type: cell-based
Details: crude compound 12.5 μg/ml
result_type: Luciferase induction (% of maximum luciferase induction produced by CT, 100 nM)

C=CCNC(=O)C(Cc1ccc(OCC=C)cc1)NC(=O)Nc1cc(C(C)(C)C)ccc1C(C)(C)C (stereo not drawn) ... 43.2%
C=CCNC(=O)[C@@H](Cc1ccccc1)NC(=O)Nc1cc(C(C)(C)C)ccc1C(C)(C)C ... 51.62%
CC(C)(C)c1ccc(C(C)(C)C)c(NC(=O)N[C@H](Cc2ccc(F)cc2)C(=O)NCc2ccc3ccccc3c2)c1 ... 32.31%
CC(C)(C)c1ccc(C(C)(C)C)c(NC(=O)N[C@H](Cc2ccc3ccccc3c2)C(=O)NCc2ccc3ccccc3c2)c1 ... 35.48%
CCNC(=O)[C@@H](Cc1ccc2ccccc2c1)NC(=O)Nc1cc(C(C)(C)C)ccc1C(C)(C)C ... 2.33%
CC(C)(C)c1ccc(C(C)(C)C)c(NC(=O)N[C@H](Cc2ccc(Cl)cc2)C(=O)NCc2ccccc2)c1 ... 59.74%
CCNC(=O)[C@@H](Cc1ccc(I)cc1)NC(=O)Nc1cc(C(C)(C)C)ccc1C(C)(C)C ... 11.8%
CCNC(=O)[C@@H](Cc1ccc(Cl)cc1)NC(=O)Nc1cc(C(C)(C)C)ccc1C(C)(C)C ... 17.85%
CC(C)(C)c1ccc(C(C)(C)C)c(NC(=O)N[C@H](Cc2ccc(F)cc2)C(=O)NCc2ccccc2)c1 ... 42.06%
C=CCNC(=O)[C@H](NC(=O)Nc1cc(C(C)(C)C)ccc1C(C)(C)C)c1ccccc1 ... 6.43%
CC(C)(C)c1ccc(C(C)(C)C)c(NC(=O)N[C@@H](C(=O)NCc2ccc3ccccc3c2)c2ccccc2)c1 ... 28.6%
C=CCNC(=O)[C@@H](Cc1ccc(Cl)cc1)NC(=O)Nc1cc(C(C)(C)C)ccc1C(C)(C)C ... 27.28%
CC(C)(C)c1ccc(C(C)(C)C)c(NC(=O)N[C@H](Cc2ccc(I)cc2)C(=O)NCc2ccccc2)c1 ... 29.35%
C=CCNC(=O)[C@@H](Cc1ccc(I)cc1)NC(=O)Nc1cc(C(C)(C)C)ccc1C(C)(C)C ... 25.02%
CCNC(=O)[C@@H](Cc1ccc(F)cc1)NC(=O)Nc1cc(C(C)(C)C)ccc1C(C)(C)C ... 32.04%

====

Target: Human calcitonin receptor (Homo sapiens)
Construct: expressed in transfected cells; host or cells: BHK-570 (Hollex-1)
Sequence (P30988 25-474): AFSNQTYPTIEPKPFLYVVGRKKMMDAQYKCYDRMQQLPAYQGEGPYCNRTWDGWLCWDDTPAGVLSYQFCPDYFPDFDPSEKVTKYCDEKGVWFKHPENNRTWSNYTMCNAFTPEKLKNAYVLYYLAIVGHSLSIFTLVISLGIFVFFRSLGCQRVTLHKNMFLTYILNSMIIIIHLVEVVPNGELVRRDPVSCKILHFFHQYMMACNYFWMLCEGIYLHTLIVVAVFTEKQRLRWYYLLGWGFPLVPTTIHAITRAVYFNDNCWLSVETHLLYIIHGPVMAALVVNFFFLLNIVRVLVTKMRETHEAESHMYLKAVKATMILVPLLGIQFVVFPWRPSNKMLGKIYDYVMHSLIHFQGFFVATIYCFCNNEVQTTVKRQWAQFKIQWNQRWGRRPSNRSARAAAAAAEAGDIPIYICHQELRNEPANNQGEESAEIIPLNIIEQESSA
Test: CRE-luciferase assay for calcitonin mimetics (Hollex-1)
Assay type: cell-based
Settings: crude compound 3.125 μg/ml
Lab note: compare Luciferase induction (% of maximum luciferase induction produced by CT, 100 nM) against 10%. Equal or greater, write yes (1). Smaller, write no (0).

CCNC(=O)[C@@H](Cc1ccc2ccccc2c1)NC(=O)Nc1cc(C(C)(C)C)ccc1C(C)(C)C ... no (0)
CC(C)(C)c1ccc(C(C)(C)C)c(NC(=O)N[C@H](Cc2ccc(Cl)cc2)C(=O)NCc2ccc3ccccc3c2)c1 ... no (0)
C=CCNC(=O)C(Cc1cn(CC=C)c2ccccc12)NC(=O)Nc1cc(C(C)(C)C)ccc1C(C)(C)C (centres unmarked) ... yes (1)
C=CCNC(=O)C(Cc1ccc(OCC=C)cc1)NC(=O)Nc1cc(C(C)(C)C)ccc1C(C)(C)C (centres unmarked) ... no (0)
CC(C)(C)c1ccc(C(C)(C)C)c(NC(=O)N[C@H](Cc2ccc3ccccc3c2)C(=O)NCc2ccccc2)c1 ... yes (1)
C=CCNC(=O)[C@@H](Cc1ccccc1)NC(=O)Nc1cc(C(C)(C)C)ccc1C(C)(C)C ... no (0)
CCNC(=O)C(Cc1cn(CC)c2ccccc12)NC(=O)Nc1cc(C(C)(C)C)ccc1C(C)(C)C (centres unmarked) ... no (0)
CCNC(=O)C(Cc1ccc(OCC)cc1)NC(=O)Nc1cc(C(C)(C)C)ccc1C(C)(C)C (centres unmarked) ... no (0)
CC(C)(C)c1ccc(C(C)(C)C)c(NC(=O)N[C@H](Cc2ccc(Cl)cc2)C(=O)NCc2ccccc2)c1 ... yes (1)
CCNC(=O)[C@@H](Cc1ccc(F)cc1)NC(=O)Nc1cc(C(C)(C)C)ccc1C(C)(C)C ... no (0)
CC(C)(C)c1ccc(C(C)(C)C)c(NC(=O)N[C@H](Cc2ccc(F)cc2)C(=O)NCc2ccccc2)c1 ... no (0)
CC(C)(C)c1ccc(C(C)(C)C)c(NC(=O)N[C@H](Cc2ccc(F)cc2)C(=O)NCc2ccc3ccccc3c2)c1 ... no (0)
CC(C)(C)c1ccc(C(C)(C)C)c(NC(=O)N[C@H](Cc2ccc(I)cc2)C(=O)NCc2ccccc2)c1 ... yes (1)
CC(C)(C)c1ccc(C(C)(C)C)c(NC(=O)N[C@@H](C(=O)NCc2ccc3ccccc3c2)c2ccccc2)c1 ... no (0)
CC(C)(C)c1ccc(C(C)(C)C)c(NC(=O)N[C@H](Cc2ccc(I)cc2)C(=O)NCc2ccc3ccccc3c2)c1 ... yes (1)
CCNC(=O)[C@@H](Cc1ccc(Cl)cc1)NC(=O)Nc1cc(C(C)(C)C)ccc1C(C)(C)C ... no (0)
CCNC(=O)[C@@H](Cc1ccc(I)cc1)NC(=O)Nc1cc(C(C)(C)C)ccc1C(C)(C)C ... no (0)

====

target: Human calcitonin receptor (Homo sapiens, UniProt P30988); construct: expressed in transfected cells; host or cells: BHK-570 (Hollex-1); test: CRE-luciferase assay for calcitonin mimetics (Hollex-1); format: cell-based; conditions: crude compound 25 μg/ml
Quick rule: Luciferase induction (% of maximum luciferase induction produced by CT, 100 nM) of at least 30% means Yes, below that means No.

CC(C)(C)c1ccc(C(C)(C)C)c(NC(=O)N[C@H](Cc2ccc(I)cc2)C(=O)NCc2ccccc2)c1 [628-044] ... No
CC(C)(C)c1ccc(C(C)(C)C)c(NC(=O)N[C@H](Cc2ccc3ccccc3c2)C(=O)NCc2ccccc2)c1 [628-045] ... Yes
CC(C)(C)c1ccc(C(C)(C)C)c(NC(=O)N[C@H](Cc2ccc(I)cc2)C(=O)NCc2ccc3ccccc3c2)c1 [628-054] ... Yes
C=CCNC(=O)[C@@H](Cc1ccc(I)cc1)NC(=O)Nc1cc(C(C)(C)C)ccc1C(C)(C)C [628-034] ... Yes
CCNC(=O)[C@@H](Cc1ccc2ccccc2c1)NC(=O)Nc1cc(C(C)(C)C)ccc1C(C)(C)C [628-025] ... No
C=CCNC(=O)C(Cc1cn(CC=C)c2ccccc12)NC(=O)Nc1cc(C(C)(C)C)ccc1C(C)(C)C (stereo not shown) [628-016] ... Yes
C=CCNC(=O)[C@@H](Cc1ccc2ccccc2c1)NC(=O)Nc1cc(C(C)(C)C)ccc1C(C)(C)C [628-035] ... Yes
